# assay_remarks: Inhibition of bovine farnesyl transferase
# Parameters: species or system Bos taurus
reported_endpoint: IC50 (nM)

{"compound": "CCOc1cccc(-n2c(=O)n(C)c3ccc(C(O)(c4ccc(Cl)cc4)c4cncn4C)cc32)c1 (configuration not stated)", "reported_endpoint": "IC50", "value_unit": "nM", "measured_result": 6.6}

I. Cn1cncc1C(O)(c1ccc(I)cc1)c1ccc2c(c1)n(Cc1cccc(Cl)c1)c(=O)n2C (configuration not stated)
II. Cn1cncc1C(O)(c1ccc(C#N)cc1)c1ccc2c(c1)n(Cc1cccc(Cl)c1)c(=O)n2C (configuration not stated)
IN: Among I and II , which shows a numerically higher IC50 result? Output the label that corresponds to your choice.
OUT: I

A. Cn1cncc1C(O)(c1ccc(Cl)cc1)c1ccc2c(c1)n(Cc1cccc(Cl)c1)c(=O)n2C (configuration not stated)
B. COc1cccc(-n2c(=O)n(C)c3ccc(C(O)(c4ccc(C#N)cc4)c4cncn4C)cc32)c1 (configuration not stated)
C. Cn1cncc1C(O)(c1ccc(C#N)cc1)c1ccc2c(c1)n(-c1cccc(Cl)c1)c(=O)n2C (configuration not stated)
IN: Form: Sort by [IC50] Order [ ascending ] Dear reader, please state the labels in the requested order.
OUT: C, B, A
(C: 1.4 nM, B: 5.1 nM, A: 150 nM)

---

# assay_remarks: Inhibition of bovine farnesyl transferase in presence of Lonafarnib
# Set-up: species or system Bos taurus
reported_endpoint: IC50 (nM)
Could you give me the number in nM? Just the number is fine.

IN: Find the recorded IC50 belonging to Cn1cncc1[C@@](N)(c1ccc(Cl)cc1)c1ccc2c(c1)c(-c1cccc(Cl)c1)cc(=O)n2C and report it.
OUT: 8.3
